assay: Sorafenib metabolism/clearance in cultured cells, LC-MS/MS; assay type: in vitro ADME; conditions: human, MHCC97-L cells, TPX2 overexpression, median (95% CI), read-out: t1/2 values (converted)
measured_attribute: half-life at 1 μmol/L (h)

1) CNC(=O)c1cc(Oc2ccc(NC(=O)Nc3ccc(Cl)c(C(F)(F)F)c3)cc2)ccn1 : 11.9

###

Test: Sorafenib metabolism/clearance in subcutaneous tumor tissues, LC-MS/MS
Type: in vivo, nude mice
Conditions: nude, mouse, subcutaneous tumor tissue formed by MHCC97-H cells, siTPX2, median (95% CI), read-out: t1/2 values (converted)
Procedure: For HCC subcutaneous tumor tissue, HCC cells were first cultured for transfection after which the cells were inoculated subcutaneously into nude mice to form tumor tissue. […] The HCC tumor tissues were collected at each time point described previously with the addition of 72 and 96 h. […] S transition pair was detected using LC–MS/MS: (1) the parent ion was 465 Da and (2) the product ion was 252 Da. […]
measured_attribute: half-life (min)

1) CNC(=O)c1cc(Oc2ccc(NC(=O)Nc3ccc(Cl)c(C(F)(F)F)c3)cc2)ccn1 : 1650

###

assay: Blood concentration assay of sorafenib, mice bearing MHCC97-H tumours; type: in vivo; conditions: nude, mouse, plasma, oral, 2 mg/kg, 2 h; Subcutaneous MHCC97-H Control tumour; 2 mg/kg oral
measured_attribute: concentration at 2 h (ng/mL)

1. CNC(=O)c1cc(Oc2ccc(NC(=O)Nc3ccc(Cl)c(C(F)(F)F)c3)cc2)ccn1 [sorafenib] : 23.3

###

tested on: HepG2 cells; experiment: MTT cell survival examination; type: cell-based; settings: Homo sapiens, HepG2, 48 h, HepG2, siTPX2, median (95% CI)
measured_attribute: IC50 (nM)

1. COc1cc2nccc(Oc3ccc(NC(=O)C4(C(=O)Nc5ccc(F)cc5)CC4)cc3)c2cc1OC [cabozantinib] : 390
2. CC(=O)O[C@H]1C(=O)[C@@]2(C)[C@H]([C@H](OC(=O)c3ccccc3)[C@]3(O)C[C@H](OC(=O)[C@H](O)[C@@H](NC(=O)c4ccccc4)c4ccccc4)C(C)=C1C3(C)C)[C@]1(OC(C)=O)CO[C@@H]1C[C@@H]2O : 8.31
3. COc1cc2nccc(Oc3ccc(NC(=O)NC4CC4)c(Cl)c3)c2cc1C(N)=O : 330
4. CCc1c2c(nc3ccc(OC(=O)N4CCC(N5CCCCC5)CC4)cc13)-c1cc3c(c(=O)n1C2)COC(=O)[C@]3(O)CC : 100
5. COc1cc([C@@H]2c3cc4c(cc3[C@@H](O[C@@H]3O[C@@H]5CO[C@@H](C)O[C@H]5[C@H](O)[C@H]3O)[C@H]3COC(=O)[C@H]23)OCO4)cc(OC)c1O [etoposide] : 180
6. CNC(=O)c1cc(Oc2ccc(NC(=O)Nc3ccc(Cl)c(C(F)(F)F)c3)c(F)c2)ccn1 : 620
7. COc1cccc2c1C(=O)c1c(O)c3c(c(O)c1C2=O)C[C@@](O)(C(=O)CO)C[C@@H]3O[C@H]1C[C@H](N)[C@H](O)[C@H](C)O1 : 50
8. CNC(=O)c1cc(Oc2ccc(NC(=O)Nc3ccc(Cl)c(C(F)(F)F)c3)cc2)ccn1 : 500

###

assay: Blood concentration assay of sorafenib, mice bearing MHCC97-L tumours; format: in vivo; conditions: nude, mouse, plasma, oral, 2 mg/kg, 20 h; Subcutaneous MHCC97-L Control tumour; 2 mg/kg oral
measured_attribute: concentration at 20 h

1) CNC(=O)c1cc(Oc2ccc(NC(=O)Nc3ccc(Cl)c(C(F)(F)F)c3)cc2)ccn1 [sorafenib] : 112 ng/mL
